# ASSAYED_TARGET: BRD4-BD1 (Homo sapiens)
# ASSAY_PROCEDURE: AlphaScreen competition assay with biotinylated JQ1
# Type: binding
# Set-up: the bromodomain 1 (BD1) of BRD4; made in house; host or cells: bacteria (pET15b or pET28b vector)
# CONDITION_LABEL: read-out: BRD4-BD1 IC50
pIC50: −log10 of the molar value.
PARAMETER: pIC50

CNC(=O)C(CC1CCN(C(=O)Cc2ccc3[nH]c(=O)cc(C)c3c2)CC1)NC(=O)c1ccc(-c2ccc(C)cc2C)cn1 (stereo not shown) :: 8.07
CNC(=O)[C@@H](CC1CCN(C(=O)Cc2ccc3[nH]c(=O)cc(C)c3c2)CC1)NC(=O)c1ccc(-c2ccc(Cl)c(F)c2)cn1 :: 8.01
Cc1ccc(-c2ccc(C(=O)NCCC3CCN(C(=O)Cc4ccc5[nH]c(=O)cc(C)c5c4)CC3)nc2)c(C)c1 :: 7.56
Cc1cc(=O)[nH]c2ccc(CC(=O)N3CCC(CCNC(=O)c4ccccc4)CC3)cc12 :: 7.32
Cc1cc(=O)[nH]c2ccc(CC(=O)N3CCC(CCNC(=O)c4ccccn4)CC3)cc12 :: 7.86
Cc1cc(=O)[nH]c2ccc(CC(=O)N3CCC(CCNC(=O)c4nccc5ccccc45)CC3)cc12 :: 6.47
CNC(=O)[C@@H](CC1CCN(C(=O)Cc2ccc3[nH]c(=O)cc(C)c3c2)CC1)NC(=O)c1ccc(-c2ccc(Cl)cc2)cn1 :: 7.89
